ASSAY INFO: pKa, pI and % salt of peptidic buffers
Type: physicochemical
CONDITION SET: Table 2, first basic pKa
Square brackets hold non-standard residues; d marks the D form. Peptide text beside a SMILES is read from it. Orn = NCCC[C@H](N)C(=O)O
MEASURED METRIC: pka B (basic pKa)
Answers are plain numbers.

I need pka B (basic pKa) for every entry listed below, if you could help.
1. N[C@@H](Cc1c[nH]c2ccccc12)C(=O)N[C@@H](Cc1c[nH]cn1)C(=O)O [Trp-His] (H-Trp-His-OH; N-terminus and C-terminus assumed)
2. N=C(N)NCCC[C@H](N)C(=O)N[C@@H](CCC(=O)O)C(=O)O [Arg-Glu] (H-Arg-Glu-OH; N-terminus and C-terminus assumed)
3. N[C@@H](Cc1c[nH]cn1)C(=O)N[C@@H](CC(=O)O)C(=O)O [His-Asp] (H-His-Asp-OH; N-terminus and C-terminus assumed)
4. NCCC[C@H](NC(=O)[C@@H](N)Cc1c[nH]cn1)C(=O)O [His-Ornithine] (H-His-[Orn]-OH; N-terminus and C-terminus assumed)
5. N[C@@H](Cc1c[nH]cn1)C(=O)N[C@@H](Cc1ccc(O)cc1)C(=O)O [His-Tyr] (H-His-Tyr-OH; N-terminus and C-terminus assumed)

[6.71, 7.92, 6.45, 6.10, 6.10]

====

ASSAY INFO: pKa, pI and % salt of peptidic buffers
Assay type: physicochemical
CONDITION SET: Table 2, first acidic pKa
Peptide text beside a SMILES is read from it.
Consider the following compounds; for each one, report its pka A (acidic pKa).
Give bare numbers.

COMPOUND | MEASURED METRIC | REPORTED VALUE
CC[C@H](C)[C@H](N)C(=O)N[C@@H](Cc1c[nH]cn1)C(=O)O [Isoleucine-His] (H-Ile-His-OH; N-terminus and C-terminus assumed) | pka A (acidic pKa) | 2.42

I need pka A (acidic pKa) for every entry listed below, if you could help.
1. N[C@@H](Cc1ccccc1)C(=O)N[C@@H](Cc1c[nH]cn1)C(=O)O [Phe-His] (H-Phe-His-OH; N-terminus and C-terminus assumed)
2. C[C@@H](O)[C@H](N)C(=O)N[C@@H](Cc1c[nH]cn1)C(=O)O [Thr-His] (H-Thr-His-OH; N-terminus and C-terminus assumed)

1. 2.42
2. 2.42

====

ASSAY INFO: pKa, pI and % salt of peptidic buffers
Format: physicochemical
CONDITION SET: Table 2, second basic pKa
Peptide text beside a SMILES is read from it.
Consider the following compounds; for each one, report its pka B (basic pKa).
Answers are plain numbers.

Solved entries (count: 3):
COMPOUND | MEASURED METRIC | REPORTED VALUE
N[C@@H](Cc1ccccc1)C(=O)N[C@@H](Cc1c[nH]cn1)C(=O)O [Phe-His] (H-Phe-His-OH; N-terminus and C-terminus assumed) | pka B (basic pKa) | 7.70
N[C@@H](Cc1c[nH]cn1)C(=O)N[C@@H](Cc1c[nH]c2ccccc12)C(=O)O [His-Trp] | pka B (basic pKa) | 7.80
CC(C)C[C@H](N)C(=O)N[C@@H](Cc1c[nH]cn1)C(=O)O [Leu-His] (H-Leu-His-OH; N-terminus and C-terminus assumed) | pka B (basic pKa) | 8.25

I need pka B (basic pKa) for every entry listed below, if you could help.
1. CSCC[C@H](N)C(=O)N[C@@H](Cc1c[nH]cn1)C(=O)O [Met-His] (H-Met-His-OH; N-terminus and C-terminus assumed)
2. N=C(N)NCCC[C@H](NC(=O)[C@@H](N)CCC(=O)O)C(=O)O [Glu-Arg] (H-Glu-Arg-OH; N-terminus and C-terminus assumed)
3. N[C@@H](Cc1c[nH]cn1)C(=O)N[C@@H](Cc1c[nH]cn1)C(=O)O [His-His]

1: 7.97; 2: 12.50; 3: 6.80

====

ASSAY INFO: Conductivities and solubilities of selected multipeptides at their pI
Format: physicochemical
CONDITION SET: at pI
Peptide text beside a SMILES is read from it.
MEASURED METRIC: Solubility (mM)
Give bare numbers, in mM.

Solved entries (count: 2):
MOLECULE | REPORTED VALUE
N[C@@H](Cc1c[nH]cn1)C(=O)N[C@@H](CC(=O)O)C(=O)O [His-Asp] (H-His-Asp-OH; N-terminus and C-terminus assumed) | 50
N[C@@H](Cc1c[nH]cn1)C(=O)N[C@@H](CCC(=O)O)C(=O)O [His-Glu] (H-His-Glu-OH; N-terminus and C-terminus assumed) | 400

Shift focus to the following entry.
Provide only the value of recorded Solubility for C[C@H](NC(=O)[C@@H](N)Cc1c[nH]cn1)C(=O)O [His-Ala] (H-His-Ala-OH; N-terminus and C-terminus assumed) 500

====

Consider the following molecules; for each one, report its pka A (acidic pKa).
ASSAY INFO: pKa, pI and % salt of peptidic buffers
Assay type: physicochemical
CONDITION SET: Table 2, second acidic pKa
Peptide text beside a SMILES is read from it.
One number for each entry.

I need pka A (acidic pKa) for every entry listed below, if you could help.
1. N[C@@H](CC(=O)O)C(=O)N[C@@H](Cc1c[nH]cn1)C(=O)O [Asp-His] (H-Asp-His-OH; N-terminus and C-terminus assumed)
2. NCCCC[C@H](N)C(=O)N[C@@H](CC(=O)O)C(=O)O [Lys-Asp] (H-Lys-Asp-OH; N-terminus and C-terminus assumed)
3. N=C(N)NCCC[C@H](NC(=O)[C@@H](N)Cc1ccc(O)cc1)C(=O)O
4. NCCCC[C@H](NC(=O)[C@@H](N)CCC(=O)O)C(=O)O [Glu-Lys] (H-Glu-Lys-OH; N-terminus and C-terminus assumed)
5. NCCCC[C@H](N)C(=O)N[C@@H](CCC(=O)O)C(=O)O [Lys-Glu] (H-Lys-Glu-OH; N-terminus and C-terminus assumed)
6. N=C(N)NCCC[C@H](N)C(=O)N[C@@H](CCC(=O)O)C(=O)O [Arg-Glu] (H-Arg-Glu-OH; N-terminus and C-terminus assumed)
7. N=C(N)NCCC[C@H](N)C(=O)N[C@@H](CC(=O)O)C(=O)O [Arg-Asp] (H-Arg-Asp-OH; N-terminus and C-terminus assumed)

[3.02, 4.10, 9.36, 4.01, 4.18, 4.18, 4.10]

I need pka A (acidic pKa) for every entry listed below, if you could help.
1. N=C(N)NCCC[C@H](NC(=O)[C@@H](N)CCC(=O)O)C(=O)O [Glu-Arg] (H-Glu-Arg-OH; N-terminus and C-terminus assumed)
2. NCC(=O)N[C@@H](CC(=O)O)C(=O)O [Gly-Asp] (H-Gly-Asp-OH; N-terminus and C-terminus assumed)

[4.01, 4.45]

I need pka A (acidic pKa) for every entry listed below, if you could help.
1. N[C@@H](Cc1ccc(O)cc1)C(=O)N[C@@H](Cc1c[nH]cn1)C(=O)O [Tyr-His] (H-Tyr-His-OH; N-terminus and C-terminus assumed)
2. N[C@@H](CCC(=O)O)C(=O)N[C@@H](Cc1c[nH]cn1)C(=O)O [Glu-His] (H-Glu-His-OH; N-terminus and C-terminus assumed)
3. N[C@@H](Cc1c[nH]cn1)C(=O)N[C@@H](CCC(=O)O)C(=O)O [His-Glu] (H-His-Glu-OH; N-terminus and C-terminus assumed)

1. 9.90
2. 3.45
3. 4.19

====

ASSAY INFO: pKa, pI and % salt of peptidic buffers
Assay type: physicochemical
CONDITION SET: Table 2, second basic pKa
Peptide text beside a SMILES is read from it.
Label fulfilled when pka B (basic pKa) >= 8; otherwise not fulfilled.

COMPOUND | LABEL
NCCC[C@H](N)C(=O)N[C@@H](Cc1c[nH]cn1)C(=O)O | not fulfilled
N[C@@H](CO)C(=O)N[C@@H](Cc1c[nH]cn1)C(=O)O [Ser-His] (H-Ser-His-OH; N-terminus and C-terminus assumed) | not fulfilled
C[C@@H](O)[C@H](N)C(=O)N[C@@H](Cc1c[nH]cn1)C(=O)O [Thr-His] (H-Thr-His-OH; N-terminus and C-terminus assumed) | not fulfilled
NCCC(=O)N[C@@H](Cc1cnc[nH]1)C(=O)O [Carnosine] | fulfilled
Cn1cncc1C[C@H](NC(=O)CCN)C(=O)O | fulfilled
NCCCC[C@H](N)C(=O)N[C@@H](CC(=O)O)C(=O)O [Lys-Asp] (H-Lys-Asp-OH; N-terminus and C-terminus assumed) | fulfilled

Has NCC(O)CC[C@H](N)C(=O)N[C@@H](Cc1c[nH]cn1)C(=O)O (stereo partly drawn) [Hydroxylysine-His] a recorded pka B (basic pKa) greater than or equal to 8? not fulfilled

Has N[C@@H](Cc1ccc(O)cc1)C(=O)N[C@@H](Cc1c[nH]cn1)C(=O)O [Tyr-His] (H-Tyr-His-OH; N-terminus and C-terminus assumed) a recorded pka B (basic pKa) greater than or equal to 8? not fulfilled

Has N=C(N)NCCC[C@H](N)C(=O)N[C@@H](CCC(=O)O)C(=O)O [Arg-Glu] (H-Arg-Glu-OH; N-terminus and C-terminus assumed) a recorded pka B (basic pKa) greater than or equal to 8? fulfilled

Has NCCCC[C@H](N)C(=O)N[C@@H](CCC(=O)O)C(=O)O [Lys-Glu] (H-Lys-Glu-OH; N-terminus and C-terminus assumed) a recorded pka B (basic pKa) greater than or equal to 8? fulfilled

Has NC(=O)CC[C@H](N)C(=O)N[C@@H](Cc1c[nH]cn1)C(=O)O [GIn-His] (H-Gln-His-OH; N-terminus and C-terminus assumed) a recorded pka B (basic pKa) greater than or equal to 8? not fulfilled
